Biological target: hGLP-1R (Homo sapiens, UniProt P43220)
Sequence (P43220 24-463): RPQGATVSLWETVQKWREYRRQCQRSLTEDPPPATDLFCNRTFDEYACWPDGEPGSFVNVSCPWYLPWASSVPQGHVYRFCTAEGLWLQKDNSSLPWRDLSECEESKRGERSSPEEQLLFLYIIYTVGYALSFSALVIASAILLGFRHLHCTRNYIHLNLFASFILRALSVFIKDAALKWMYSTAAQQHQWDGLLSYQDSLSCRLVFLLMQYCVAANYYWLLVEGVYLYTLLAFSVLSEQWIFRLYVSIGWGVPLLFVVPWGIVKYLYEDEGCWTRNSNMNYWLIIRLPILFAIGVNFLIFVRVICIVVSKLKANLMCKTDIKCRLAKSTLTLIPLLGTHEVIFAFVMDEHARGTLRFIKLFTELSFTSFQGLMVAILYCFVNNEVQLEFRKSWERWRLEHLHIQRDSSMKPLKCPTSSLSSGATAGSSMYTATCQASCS
Test: cell-based or functional assay
# reported log10 of Relative cAMP EC50; entries follow
property-name: log10 of Relative cAMP EC50 (log10 of the value in nM)

* YXQGTXTSDXSIXLDKKAQXAFIEYLEEGGPSSGEPPPEGTGE (non-natural residues; lipidated Lys; C-terminal amide; synthetic construct; SITE 2: note = 2-Aminoisobutyric Acid; SITE 6: note = alpha-methyl-2-fluoro-L-phenylalanine; SITE 10: note = 3-(4-Pyridyl)-L-alanine; SITE 13: note = alpha-methyl-leucine; SITE 17: note = Lysine is chemically modified through conjugation of the epsilon-amino group of the Lysine) [Example 628] | 0.05
* YXQGTFTSDXSQXLDXKAQXAFIEYLLAGGPSSGAPPPSGSEE (non-natural residues; lipidated Lys; C-terminal amide; synthetic construct; SITE 2: note = 2-Aminoisobutyric Acid; SITE 10: note = 3-(4-Pyridyl)-L-alanine; SITE 13: note = alpha-methyl-leucine; SITE 16: note = L-ornithine; SITE 17: note = Lysine is chemically modified through conjugation of the epsilon-amino group of the Lysine side chain with (gamma-Gl)) [Example 1056] | 0.63
* YXQGTXTSDXXIXLDXKAAXEFIEXLIEGGPSSGAPPPSGTEX (synthetic construct; SITE 2: note = 2-Aminoisobutyric Acid; SITE 6: note = alpha-methyl-2-fluoro-L-phenylalanine; SITE 10: note = 3-(4-Pyridyl)-L-alanine; SITE 11: note = alpha-methyl-L-serine; SITE 13: note = alpha-methyl-leucine; SITE 16: note = L-ornithine; SITE 17: note = Lysine is chemically mo) [Example 726] | -0.61
* YXQGTFTSDXSXXLDKKAQXAFIEXLIEXGPSSGEPPPSGS (Aib, 4Pal, Orn, αMeL, Me4Pal, acylated K, C-terminal amide; synthetic construct; SITE 2: note = 2-Aminoisobutyric Acid; SITE 10: note = 3-(4-Pyridyl)-L-alanine; SITE 12: note = L-ornithine; SITE 13: note = alpha-methyl-leucine; SITE 17: note = Lysine is chemically modified through conjugation of the epsilon-amino group of the Lysine side chain with (2-[2-(2-) [Example 987] | 0.80
* YXQGTXTSDXXIXLDXKAQXEFIEXLIEGGPSSGAPPPTGE (Aib, αMeF(2F), 4Pal, αMeS, αMeL, Orn, Me4Pal, αMeY, acyl, amide; synthetic construct; SITE 2: note = 2-Aminoisobutyric Acid; SITE 6: note = alpha-methyl-2-fluoro-L-phenylalanine; SITE 10: note = 3-(4-Pyridyl)-L-alanine; SITE 11: note = alpha-methyl-L-serine; SITE 13: note = alpha-methyl-leucine; SITE 16: note = L-ornithine; SITE 17: note = Lysine is chemically mo) [Example 1142] | -0.48
* YXQGTFTSDFSXXLDKKAQXAFIEYLLAGGPSSGEPPPSGE (synthetic construct; SITE 2: note = 2-Aminoisobutyric Acid; SITE 12: note = L-ornithine; SITE 13: note = alpha-methyl-leucine; SITE 17: note = Lysine is chemically modified through conjugation of the epsilon-amino group of the Lysine side chain with (2-[2-(2-Amino-ethoxy)-ethoxy]-acetyl)-(gamma-Glu)) [Example 97] | 0.51
* YXQGTXTSDXXIXLDXKAQXEFIEXLVEGGPSSGEPPPGGE (not fully specified; Lys acylated AEEA-γGlu-C18 diacid; non-natural residues; C-amide; synthetic construct; SITE 2: note = 2-Aminoisobutyric Acid; SITE 6: note = alpha-methyl-2-fluoro-L-phenylalanine; SITE 10: note = 3-(4-Pyridyl)-L-alanine; SITE 11: note = alpha-methyl-L-serine; SITE 13: note = alpha-methyl-leucine; SITE 16: note = L-ornithine; SITE 17: note = Lysine is chemically mo) [Example 1155] | -0.36
* YXQGTXTSDXXIXLDXKAQXEFIEXLIEGGPSSGEPPPSGGGE (Aib, αMe residues, 4Pal, Orn, Me4Pal; acylated K; amide; synthetic construct; SITE 2: note = 2-Aminoisobutyric Acid; SITE 6: note = alpha-methyl-L-phenylalanine; SITE 10: note = 3-(4-Pyridyl)-L-alanine; SITE 11: note = alpha-methyl-L-serine; SITE 13: note = alpha-methyl-leucine; SITE 16: note = L-ornithine; SITE 17: note = Lysine is chemically modified th) [Example 1175] | -0.24
* YXQGTFTSDXSQXLDXKAQXQFIEXLIAGGPSSGAPPPSGSEEE (Aib, 4Pal, Orn, Me4Pal, alpha-methyl-Tyr, lipidated Lys, amide; synthetic construct; SITE 2: note = 2-Aminoisobutyric Acid; SITE 10: note = 3-(4-Pyridyl)-L-alanine; SITE 13: note = alpha-methyl-leucine; SITE 16: note = L-ornithine; SITE 17: note = Lysine is chemically modified through conjugation of the epsilon-amino group of the Lysine side chain with D-Glutami) [Example 1081] | 0.11
* YXQGTFTSDXSKXLDKKAQXAFIEYLIEXGESSGEPPPSGE (synthetic construct; SITE 2: note = 2-Aminoisobutyric Acid; SITE 10: note = 3-(4-Pyridyl)-L-alanine; SITE 13: note = alpha-methyl-leucine; SITE 17: note = Lysine is chemically modified through conjugation of the epsilon-amino group of the Lysine side chain with (2-[2-(2-Amino-ethoxy)-ethoxy]-acetyl)) [Example 281] | 0.20
